- Assay Procedure: chemical genetic growth profiling, strain panel (AID 1159580);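 also: tested at 20 µM; growth read once vehicle control cultures reached saturation at 30 °C; 1 = growth at the plate median or of vehicle wells; lower values mean less growth of the strain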
- Measurement Conditions: S. cerevisiae deletion strains, growth OD, locus YAL021C, strain ccr4
In all, about 5,500 compounds went through this assay and about 2,000 (36%) were called active. Not shown: some 18% with an inconclusive outcome. Rule as the data show it: active = normalized growth mostly below about 0.91 (no sharp cut-off); inconclusive = no clear call, values can overlap the other calls; inactive = mostly above about 0.92. The list shows a part of the results.
Answer with one of the outcomes given here: class 1 (active), class 0 (inactive)

Examples with answers:
{"Compound": "C[C@H](CCC(=O)O)[C@H]1CCC2C3C(CC[C@@]21C)[C@@]1(C)CC[C@@H](O)C[C@H]1C[C@@H]3O (some centres undefined)", "Cat": "class 0"}
{"Compound": "COc1cc([C@@H]2c3cc4c(cc3[C@H](OC(C)=O)[C@H]3COC(=O)[C@@H]23)OCO4)cc(OC)c1OC", "Cat": "class 0"}

Per the assay record, what outcome was assigned to CC(CCC(=O)O)[C@H]1CCC2C3CC[C@@H]4C[C@H](O)CC[C@]4(C)C3C[C@H](O)[C@@]21C (some centres undefined) ?
class 0

Request: "CC12CC3CC(C)(C1)CC(N)(C3)C2"
class 0

Request: COC(=O)CCC(C)C1CCC2C3CC[C@@H]4C[C@H](O)CC[C@]4(C)C3C[C@H](O)[C@]12C (some centres undefined)
class 1

Request: CC(=O)O[C@H]1C[C@@H](OC(C)=O)C(C)(C)C2CC(=O)[C@]3(C)C(CC[C@@]4(C)[C@H](c5ccoc5)OC(=O)[C@H]5O[C@]543)[C@]21C (some centres undefined)
class 0

Request: CC(CCC(=O)O)[C@H]1CCC2C3CC[C@@H]4C[C@H](O)CC[C@]4(C)C3CC[C@@]21C (some centres undefined)
class 0

Request: CC(C)CCCC(C)C1CCC2C3CC[C@H]4CCCC[C@]4(C)C3CC[C@]12C (some centres undefined)
class 0

Request: CN(C)CCC(c1ccc(Br)cc1)c1ccccn1 (centres undefined)
class 0

###

- Assay Procedure: chemical genetic growth profiling, strain panel (AID 1159580);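 also: tested at 20 µM; growth read once vehicle control cultures reached saturation at 30 °C; 1 = growth at the plate median or of vehicle wells; lower values mean less growth of the strain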
- Measurement Conditions: S. cerevisiae deletion strains, growth OD, locus YML070W, strain DAK1
Among all 5,500 compounds or so, about 2,000 (36%) were called active. About 18% were inconclusive and are not listed. Rule as the data show it: active = normalized growth mostly below about 0.91 (no sharp cut-off); inconclusive = no clear call, values can overlap the other calls; inactive = mostly above about 0.92. The list shows a part of the results.
Answer with one of the outcomes given here: active, inactive

Examples with answers:
{"Compound": "CC1(C)c2ccccc2N(CCC(N)=O)C12C=Cc1c(ccc3ccccc13)O2 (stereo not given)", "Cat": "inactive"}
{"Compound": "S=C(Nc1cc(Cl)c(Cl)cc1Cl)Nc1ccccc1Br", "Cat": "inactive"}
{"Compound": "Cc1ccc(S(=O)(=O)Nc2ccc(Oc3ccc(F)cc3)cc2)cc1", "Cat": "inactive"}
{"Compound": "O=C(Nc1ccc(F)c(Cl)c1)c1ccccc1O", "Cat": "inactive"}

Per the assay record, what outcome was assigned to CC1C/C(=N/Nc2ccc(Br)cc2)c2cc(Cl)ccc2S1 (stereo not given) ?
active

Request: "O=[N+]([O-])c1ccc(-c2csc(Nc3ccncc3)n2)cc1"
inactive

Request: "S=C(NNc1ccccc1)Nc1cc(Cl)ccc1Cl"
inactive

Request: COc1ccc(CC2CCC(=NOC(=O)c3ccc(C(C)(C)C)cc3)CC2)cc1 (stereo not given)
inactive

Request: "O=S(=O)(Nc1ccc(Oc2ccc(OC(F)(F)F)cc2)cc1)c1cccc(Cl)c1"
inactive

Request: COc1ccc(CC2CCC(=NOC(=O)c3c(Cl)cccc3Cl)CC2)cc1 (stereo not given)
inactive
